# STUDY TARGET: KRAS G12C (Homo sapiens (Human), UniProt P01116, C118A/G12C)
# Sequence (P01116 other isoform, or with tags, fused parts or gaps G12C/C118A): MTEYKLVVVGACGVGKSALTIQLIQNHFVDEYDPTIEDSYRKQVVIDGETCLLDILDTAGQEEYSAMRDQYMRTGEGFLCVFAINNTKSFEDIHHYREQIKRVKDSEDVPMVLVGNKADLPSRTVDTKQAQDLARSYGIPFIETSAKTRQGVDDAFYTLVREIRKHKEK
# TEST DETAILS: 2 h coupled exchange assay
# Assay type: biochemical
# TEST CONDITIONS: Avg 2 h Coupled exchange IC50, 2 h compound pre-incubation, SOS-mediated nucleotide exchange
Recorded IC50 for the following compounds
Answers without a unit are incomplete; give the number and then its unit.

Examples with their reported IC50 follow.
[
  {
    "COMPOUND": "C=CC(=O)N1CC2(CCN(c3nc4c(c(-c5c(C)ccc6cnn(C)c56)c3C#N)C[C@H]3C[C@@H]4C3(C)C)[C@@H]2CO)C1",
    "QUANTITY NAME": "IC50",
    "REPORTED MEASUREMENT": "332 nM"
  },
  {
    "COMPOUND": "C=CC(=O)N1CC2(CCN(c3nc4c(c(-c5c(C)ccc6[nH]ncc56)c3C#N)CC(C)(C)C4)[C@@H]2C)C1 (atropisomer, axis not shown; (P))",
    "QUANTITY NAME": "IC50",
    "REPORTED MEASUREMENT": "17 nM"
  },
  {
    "COMPOUND": "C=CC(=O)N1CC2(CCN(c3nc4c(c(-c5cc(O)cc6ccccc56)n3)CCC(C)(C)C4)C2)C1",
    "QUANTITY NAME": "IC50",
    "REPORTED MEASUREMENT": "75 nM"
  },
  {
    "COMPOUND": "C=CC(=O)N1CC2(CCN(c3nc4c(c(-c5c(C)ccc6cnn(C)c56)c3C#N)C[C@H]3C[C@@H]4C3)[C@H]2C)C1 [Example 13-30]",
    "QUANTITY NAME": "IC50",
    "REPORTED MEASUREMENT": "715 nM"
  },
  {
    "COMPOUND": "C=CC(=O)N1CC2(CCN(c3nc4c(c(-c5c(C)ccc6cnn(C)c56)c3C#N)CNC(C)(C)C4)C2)C1",
    "QUANTITY NAME": "IC50",
    "REPORTED MEASUREMENT": "641 nM"
  }
]

Query: Which IC50 is listed for C=CC(=O)N1CC2(CCN(c3nc4c(c(-c5c(C)ccc6[nH]ncc56)c3C#N)CCCC4)C2)C1 ?
Result: 59 nM

Query: Ok, now C=CC(=O)N1CC2(CCN(c3nc4c(c(-c5c(C)ccc6cnn(C)c56)c3C#N)CCC3CC43)C2)C1 (centres unmarked)
Result: 30 nM

Query: Now the compound C=CC(=O)N1CC2(CCN(c3nc4c(c(-c5c(C)ccc6[nH]ncc56)c3C#N)C[C@H]3C[C@@H]4C3(C)C)C2)C1 [Example 13-93]
Result: 53 nM
